Reference for the values: ChEMBL document CHEMBL1201862

System: SR
protocol notes: NCI tumour cell line growth inhibition, 48 h
The source made the active and inactive calls. Cut-off read from the data, not from the text of the source: active = GI50 up to about 1.1 µM and inactive = higher.
// classify into Y for active, N for inactive

• N#CCCN(c1ccc(/C=N/c2cccc([N+](=O)[O-])c2)cc1)S(=O)(=O)c1ccccc1 = N
• CCCCCCCCCCCc1c(O)c(=O)c2c(oc3c(=O)c(CCCCCCCCCCC)c(O)c(=O)c3n2-c2ccc(N(C)C)cc2)c1=O = N

Consider the additional compound presented here.
Please indicate how the test categorized "C(=C\N1CCCCC1)/c1nnnn1-c1ccccc1" .
N

----------
System: OVCAR-3
protocol notes: NCI tumour cell line growth inhibition, 48 h
Calls of active or inactive are those of the source. Cut-off read from the data, not from the text of the source: active = GI50 up to about 1.1 µM and inactive = higher.
metric: GI50

Recorded results for 2 compounds are shown here.
• Cn1c([N+](=O)[O-])cnc1CN1CCN(CCO)CC1 = > 100 µM (inactive)
• CCCN(CCC)c1c([N+](=O)[O-])cc(C(=O)N(CC)CC)cc1[N+](=O)[O-] = 14.5 µM (inactive)

Dear colleague, I am looking for the recorded GI50 of the following compound: "Nc1n[n+]([O-])c2cnccc2[n+]1[O-]"
35.4 µM (inactive)

----------
Test system: NCI-H23
protocol notes: NCI tumour cell line growth inhibition, 48 h
Activity calls are given as the source filed them. Cut-off read from the data, not from the text of the source: active = GI50 up to about 1.1 µM and inactive = higher.
// classify into active, inactive

See these solved cases before continuing.
• Cn1c([N+](=O)[O-])cnc1CN1CCN(CCO)CC1 = inactive
• CCOC(=O)NC(=O)c1cn(CCN2CCN(C(=O)CCCCCCCCCCC(=O)N3CCN(CCn4cc(C(=O)NC(=O)OCC)c(=O)[nH]c4=O)CC3)CC2)c(=O)[nH]c1=O = inactive
• COc1ccc(/C=C2\N=C(c3ccccc3)N(C3Nc4cc5c(cc4S3)NC(N3C(=O)/C(=C/c4ccc(OC)cc4)N=C3c3ccccc3)S5)C2=O)cc1 (stereo unspecified) = inactive
• CC(C)S(=O)(=O)n1c(N)nc2ccc(/C(=N/O)c3ccccc3)cc21 [ENVIROXIME] = inactive
• CCCCc1c2c(nc3c1CCC/C3=C\c1ccccc1)C(=O)C(CN(C)C)CC2 (stereo unspecified) = inactive
• N#Cc1c(-c2nc3ccccc3s2)c(=O)oc2cc(O)ccc12 = inactive
• C/C(=N\Nc1nc2ccccc2s1)c1cccc[n+]1[O-] = inactive
• COc1ccc(O[C@H](COCc2ccccc2)C[C@@H]2COC(C)(C)O2)cc1 = inactive
• O=c1c2cc(S(=O)(=O)Nc3c(Cl)cccc3Cl)ccc2ncn1NS(=O)(=O)c1ccc2ccccc2c1 = inactive
• CN1CCN(C2=C(Cl)C(=O)c3c(O)ccc(O)c3C2=O)CC1 = active

Please indicate how the test categorized O=C(O)CC(NC(=O)CP(=O)(O)O)C(=O)O (stereo unspecified) .
inactive

Please indicate how the test categorized "Cc1ccc(NC(=O)C(=O)CC(=O)c2c(C)[n+]([O-])c3ccccc3[n+]2[O-])cc1" .
inactive

Please indicate how the test categorized "Cc1cc(C)c(NC(=O)/C=C/c2ccccc2)c(C)c1" .
inactive

Please indicate how the test categorized "CC(C)=CCC[C@@H](C)C1=C(O)C(=O)C(C)=C(Nc2ccccc2Br)C1=O" .
inactive

Please indicate how the test categorized "CC1=Nn2c(nnc2-c2ccc(N)cc2)NC(C)(C)C1" .
inactive

Please indicate how the test categorized "CC[n+]1c(/C=C/c2ccc(N(CCCl)CCCl)cc2)ccc2cc(I)ccc21" .
inactive

Please indicate how the test categorized ClCCCN1CCCCC1CCl (stereo unspecified) .
inactive

Please indicate how the test categorized "N#Cc1c(N2CCN(c3ccc([N+](=O)[O-])cc3)CC2)[n+]([O-])c2ccccc2[n+]1[O-]" .
inactive
